System: EGFR (human), P00533 [T790M]
Protocol description: KINOMEscan competition binding
Applied conditions: compound 10.0 µM
Classes are defined on kinase still bound, per cent of control with ranges low bracket (below 40%), middle bracket (40% to below 80%), high bracket (80% or more)

Ask: Which band does `O=C(O)c1ccc(Nc2ncc3c(n2)-c2ccc(Cl)cc2C(c2c(F)cccc2F)=NC3)cc1` fall in?
Result: middle bracket

Ask: Which band does `CN(C)C/C=C/C(=O)Nc1ccc(C(=O)Nc2cccc(Nc3nccc(-c4cccnc4)n3)c2)cc1` fall in?
Result: middle bracket

Ask: Which band does `C=CC(=O)Nc1ccc(C(=O)c2sc(Nc3ccc(N4CCN(C)CC4)cc3OC)nc2N)cc1` fall in?
Result: low bracket

Ask: Which band does `CCN1CCN(C(=O)Cc2ccc(Nc3ncc(F)c(Nc4ccc(C(=O)Nc5ccccc5Cl)cc4)n3)cc2)CC1` fall in?
Result: low bracket

Ask: Which band does `CCN1CCN(Cc2ccc(Nc3ncc4c(n3)N(C)c3ccccc3C(=O)N4C)cc2C(F)(F)F)CC1` fall in?
Result: high bracket

Ask: Which band does `COc1ccc(N(C(=O)Oc2c(C)cccc2C)c2ccnc(Nc3ccc(N4CCN(C)CC4)cc3)n2)c(OC)c1` fall in?
Result: low bracket

Ask: Which band does `O=c1[nH]c2ccccc2n1C1CCN(Cc2ccc(-c3nc4cc5[nH]cnc5cc4nc3-c3ccccc3)cc2)CC1` fall in?
Result: middle bracket

Ask: Which band does `Cc1ccc2nc(NCCN)c3ncc(C)n3c2c1` fall in?
Result: middle bracket

Ask: Which band does `C=CC(=O)Nc1cc(-n2c(=O)ccc3cnc4ccc(-c5cn[nH]c5)cc4c32)ccc1C` fall in?
Result: low bracket

Ask: Which band does `COc1cc2ncnc(-n3nc(-c4ccccn4)nc3N)c2cc1OC` fall in?
Result: middle bracket

Ask: Which band does `O=C(Nc1cccc(Nc2ncc(Br)c(NCCc3cnc[nH]3)n2)c1)N1CCCC1` fall in?
Result: low bracket

Ask: Which band does `O=c1cc(N2CCOCC2)oc2c(-c3cccc4c3sc3ccccc34)cccc12` fall in?
Result: high bracket

Ask: Which band does `COc1cc2c(Nc3ccc(NC(=O)c4ccccc4)cc3)ncnc2cc1OCCCN1CCOCC1` fall in?
Result: middle bracket

Ask: Which band does `O=C1NC(=O)/C(=C/c2ccc3nccc(-c4ccncc4)c3c2)S1` fall in?
Result: middle bracket

Ask: Which band does `C=CC(=O)Nc1cc(NC(=O)c2ccc(C)c(NC(=O)c3ccno3)c2)cc(C(F)(F)F)c1` fall in?
Result: high bracket

Ask: Which band does `NC(=O)Nc1cc(-c2cccc(F)c2)sc1C(=O)N[C@@H]1CCCNC1` fall in?
Result: low bracket

Ask: Which band does `COc1cc(C(=O)N2CCC(N3CCN(C)CC3)CC2)ccc1Nc1ncc2c(n1)N(C)c1ccccc1C(=O)N2C` fall in?
Result: high bracket

Ask: Which band does `COc1cc(N2CCN(C)CC2)ccc1Nc1nc(N)c(C(=O)c2c(Cl)cccc2Cl)s1` fall in?
Result: high bracket

Ask: Which band does `COc1cc2ncn(-c3cc(OCc4ccccc4C(F)(F)F)c(C(N)=O)s3)c2cc1OC` fall in?
Result: high bracket

Ask: Which band does `O=C1Nc2ccc(I)cc2/C1=C/c1cc(Br)c(O)c(Br)c1` fall in?
Result: middle bracket

Ask: Which band does `CCCS(=O)(=O)Nc1ccc(F)c(C(=O)c2c[nH]c3ncc(Cl)cc23)c1F` fall in?
Result: middle bracket

Ask: Which band does `C=CC(=O)Nc1cccc(Nc2nc(N[C@H]3CC[C@H](N(C)C)CC3)nc3c2ncn3C(C)C)c1` fall in?
Result: middle bracket

Ask: Which band does `CCN1CCN(Cc2ccc(NC(=O)c3ccc(C)c(/C=C/c4cnc5[nH]ccc5c4OC)c3)cc2C(F)(F)F)CC1` fall in?
Result: low bracket

Ask: Which band does `C[C@@H](Oc1cc(-n2cnc3ccc(CN4CCN(C)CC4)cc32)sc1C(N)=O)c1ccccc1C(F)(F)F` fall in?
Result: middle bracket

Ask: Which band does `Cc1cc([C@@H](C)Nc2ccccc2C(=O)O)c2nc(N3CCOCC3)cc(=O)n2c1` fall in?
Result: high bracket

Ask: Which band does `O=C(NC1CC1)c1cccc(-c2ccc3c(NC(=O)C4CC4)n[nH]c3c2)c1` fall in?
Result: high bracket

Ask: Which band does `N#Cc1cc(-c2ccnc(Nc3ccc(-n4cnc(-c5cccnc5)n4)cc3)n2)cc(N2CCOCC2)c1` fall in?
Result: high bracket

Ask: Which band does `COc1cc2ncnc(Nc3cccc(Cl)c3)c2cc1OC` fall in?
Result: low bracket

Ask: Which band does `Nc1ccc(-c2ccc3ncc4ccc(=O)n(-c5cccc(C(F)(F)F)c5)c4c3c2)cn1` fall in?
Result: high bracket

Ask: Which band does `CNC(=O)Nc1ccc(-c2nc(N3CC4CCC(C3)O4)c3cnn(C4CCC5(CC4)OCCO5)c3n2)cc1` fall in?
Result: middle bracket

Ask: Which band does `CCC(=O)N1CCN(c2ccc(-n3c(=O)ccc4cnc5ccc(-c6cnc7ccccc7c6)cc5c43)cc2C(F)(F)F)CC1` fall in?
Result: high bracket

Ask: Which band does `CN(C)C/C=C/C(=O)Nc1cccc(Nc2ncc3c(n2)N(C)c2ccccc2C(=O)N3C)c1` fall in?
Result: middle bracket

Ask: Which band does `O=C(NOC[C@H](O)CO)c1ccc(F)c(F)c1Nc1ccc(I)cc1F` fall in?
Result: middle bracket

###

Subject of test: FGR (human)
Protocol description: KINOMEscan competition binding
Applied conditions: compound 10.0 µM
Give kinase still bound, per cent of control for every item shown.
API: value field is a number in %; no unit string.

Ask: Entry `CNC(=O)c1cc(Oc2ccc(NC(=O)Nc3ccc(Cl)c(C(F)(F)F)c3)cc2)ccn1` : reported kinase still bound, per cent of control = ?
Result: 53

Ask: Entry `COc1cc(N2CCN(C)CC2)ccc1Nc1ncc2c(n1)N(C)c1ccccc1C(=O)N2C` : reported kinase still bound, per cent of control = ?
Result: 100

Ask: Entry `O=C(Nc1cccc(Nc2ncc(Br)c(NCCc3cnc[nH]3)n2)c1)N1CCCC1` : reported kinase still bound, per cent of control = ?
Result: 13

###

Subject of test: CAMK4 (human) (UniProt Q16566)
Sequence (Q16566 whole entry, looked up): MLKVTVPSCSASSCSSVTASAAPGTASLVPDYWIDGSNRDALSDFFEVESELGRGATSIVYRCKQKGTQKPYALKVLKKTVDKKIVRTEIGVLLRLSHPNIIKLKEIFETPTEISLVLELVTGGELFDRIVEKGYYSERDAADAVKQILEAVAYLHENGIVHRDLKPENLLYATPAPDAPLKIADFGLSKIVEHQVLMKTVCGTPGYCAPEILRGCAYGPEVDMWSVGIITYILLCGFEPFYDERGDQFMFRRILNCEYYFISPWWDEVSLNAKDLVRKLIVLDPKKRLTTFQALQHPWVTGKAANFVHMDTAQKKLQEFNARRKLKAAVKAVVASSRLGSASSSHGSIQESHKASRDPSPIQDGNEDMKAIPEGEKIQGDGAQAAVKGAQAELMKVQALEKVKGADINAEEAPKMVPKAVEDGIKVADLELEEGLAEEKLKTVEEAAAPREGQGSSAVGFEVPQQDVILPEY
Protocol description: KINOMEscan competition binding
Applied conditions: compound 10.0 µM
Give kinase still bound, per cent of control for every item shown.
API: value field is a number in %; no unit string.

Ask: Entry `O=C1NC(=O)/C(=C/c2ccc3nccc(-c4ccncc4)c3c2)S1` : reported kinase still bound, per cent of control = ?
Result: 100

Ask: Entry `Cc1n[nH]c2ccc(-c3cncc(OC[C@@H](N)Cc4c[nH]c5ccccc45)c3)cc12` : reported kinase still bound, per cent of control = ?
Result: 12

Ask: Entry `NC(=O)Nc1cc(-c2cccc(F)c2)sc1C(=O)N[C@@H]1CCCNC1` : reported kinase still bound, per cent of control = ?
Result: 0.15

Ask: Entry `COc1cc2ncnc(-n3nc(-c4ccccn4)nc3N)c2cc1OC` : reported kinase still bound, per cent of control = ?
Result: 100

###

Subject of test: IGF1R (human)
Protocol description: KINOMEscan competition binding
Applied conditions: compound 10.0 µM
Give kinase still bound, per cent of control for every item shown.
API: value field is a number in %; no unit string.

Ask: Entry `O=C1NC(=O)/C(=C/c2ccc3nccc(-c4ccncc4)c3c2)S1` : reported kinase still bound, per cent of control = ?
Result: 100

Ask: Entry `O=C(Nc1cccc(Nc2ncc(Br)c(NCCc3cnc[nH]3)n2)c1)N1CCCC1` : reported kinase still bound, per cent of control = ?
Result: 17

Ask: Entry `COc1cc(N2CCN(C)CC2)ccc1Nc1ncc2c(n1)N(C)c1ccccc1C(=O)N2C` : reported kinase still bound, per cent of control = ?
Result: 100

Ask: Entry `COc1cc(C(=O)N2CCC(N3CCN(C)CC3)CC2)ccc1Nc1ncc2c(n1)N(C)c1ccccc1C(=O)N2C` : reported kinase still bound, per cent of control = ?
Result: 96

Ask: Entry `C=CC(=O)Nc1ccc(CN(C(=O)Nc2c(Cl)c(OC)cc(OC)c2Cl)c2cc(Nc3ccc(N4CCN(C)CC4)cc3)ncn2)cc1` : reported kinase still bound, per cent of control = ?
Result: 16

Ask: Entry `CCN(CC)CCCCNc1ncc2cc(-c3cc(OC)cc(OC)c3)c(NC(=O)NC(C)(C)C)nc2n1` : reported kinase still bound, per cent of control = ?
Result: 100

Ask: Entry `NC(=O)Nc1cc(-c2cccc(F)c2)sc1C(=O)N[C@@H]1CCCNC1` : reported kinase still bound, per cent of control = ?
Result: 44

Ask: Entry `CCN1CCN(C(=O)Cc2ccc(Nc3ncc(F)c(Nc4ccc(C(=O)Nc5ccccc5Cl)cc4)n3)cc2)CC1` : reported kinase still bound, per cent of control = ?
Result: 46

Ask: Entry `COc1cc2ncnc(-n3nc(-c4ccccn4)nc3N)c2cc1OC` : reported kinase still bound, per cent of control = ?
Result: 100

Ask: Entry `CS(=O)(=O)N1CCN(Cc2cc3nc(-c4cccc5[nH]ncc45)nc(N4CCOCC4)c3s2)CC1` : reported kinase still bound, per cent of control = ?
Result: 100

Ask: Entry `COc1ccc(N(C(=O)Oc2c(C)cccc2C)c2ccnc(Nc3ccc(N4CCN(C)CC4)cc3)n2)c(OC)c1` : reported kinase still bound, per cent of control = ?
Result: 100

Ask: Entry `C[C@@H](Oc1cc(-c2cnn(C3CCNCC3)c2)cnc1N)c1c(Cl)ccc(F)c1Cl` : reported kinase still bound, per cent of control = ?
Result: 0.9

Ask: Entry `COc1cc2ncn(-c3cc(OCc4ccccc4C(F)(F)F)c(C(N)=O)s3)c2cc1OC` : reported kinase still bound, per cent of control = ?
Result: 100

Ask: Entry `O=c1cc(N2CCOCC2)oc2c(-c3cccc4c3sc3ccccc34)cccc12` : reported kinase still bound, per cent of control = ?
Result: 97

Ask: Entry `CCN(CC)CCCCNc1ncc2c(n1)N(C)C(=O)N(c1c(Cl)c(OC)cc(OC)c1Cl)C2` : reported kinase still bound, per cent of control = ?
Result: 100

Ask: Entry `CNC(=O)c1cc(Oc2ccc(NC(=O)Nc3ccc(Cl)c(C(F)(F)F)c3)cc2)ccn1` : reported kinase still bound, per cent of control = ?
Result: 100

Ask: Entry `COCC(=O)NC/C=C/c1ccc2ncnc(Nc3ccc(Oc4ccc(C)nc4)c(C)c3)c2c1` : reported kinase still bound, per cent of control = ?
Result: 83

Ask: Entry `CNC(=O)c1ccc(Nc2cc(Nc3ccccc3S(=O)(=O)C(C)C)c3cc[nH]c3n2)nc1` : reported kinase still bound, per cent of control = ?
Result: 2.2

Ask: Entry `CN(C)C/C=C/C(=O)Nc1ccc(C(=O)Nc2cccc(Nc3nccc(-c4cccnc4)n3)c2)cc1` : reported kinase still bound, per cent of control = ?
Result: 100
